- method summary: Control group: clearance of 111-In-indium-IMP-156 alone
- Assay type: in vivo, nude mice
- reported conditions: female, NCRNU nude, mouse, total radioactivity, Liver
Where a SMILES comes first, the peptide text is derived from it. The star is where a group is joined. DTPA = O=C(O)CN(CCN(CC(=O)O)CC(=O)O)CCN(CC(=O)O)CC(=O)*
readout type: tissue uptake at 3 h

>>> reported("CC(=O)N[C@@H](Cc1ccccc1)C(=O)N[C@@H](CCCCNC(=O)CN(CCN(CCN(CC(=O)O)CC(=O)O)CC(=O)O)CC(=O)O)C(=O)N[C@@H](Cc1ccc(O)cc1)C(=O)N[C@@H](CCCCNC(=O)CN(CCN(CCN(CC(=O)O)CC(=O)O)CC(=O)O)CC(=O)O)C(N)=O [IMP 156, Ac-Phe-Lys(DTPA)-Tyr-Lys(DTPA)-NH2] (Ac-FK(DTPA)YK(DTPA)-NH2)")
"0.42 %ID/g"

###

- method summary: Pretargeting: 125-I-hMN-14 × 734 bsAb, 24 h later 99m-Tc-IMP-192, biodistribution
- Type: in vivo, Nude mice
- reported conditions: female, NCRNU nude, mouse, total radioactivity; Liver, 3 h post peptide
Where a SMILES comes first, the peptide text is derived from it. Side-chain parts run from the residue outwards. The star is where a group is joined. DTPA = O=C(O)CN(CCN(CC(=O)O)CC(=O)O)CCN(CC(=O)O)CC(=O)*; X1 = NC(=S)NN=CC(=O)*
readout type: tissue uptake at 3 h (%ID/g)

>>> reported("CC(=O)N[C@@H](CCCCNC(=O)CN(CCN(CCN(CC(=O)O)CC(=O)O)CC(=O)O)CC(=O)O)C(=O)N[C@@H](Cc1ccc(O)cc1)C(=O)N[C@@H](CCCCNC(=O)CN(CCN(CCN(CC(=O)O)CC(=O)O)CC(=O)O)CC(=O)O)C(=O)N[C@@H](CCCCNC(=O)[C@H](CS)NC(=O)C=NNC(N)=S)C(N)=O [IMP 192] (Ac-K(DTPA)YK(DTPA)K([Cys-X1])-NH2)")
0.6

###

- method summary: Pretargeting: 125-I-hMN-14 × 734 bsAb, 48 h later 111-In-indium-IMP-156, biodistribution
- Type: in vivo, nude mice
- reported conditions: female, nude (Taconic NCRNU), mouse; Lungs, 3 h post peptide
Where a SMILES comes first, the peptide text is derived from it. The star is where a group is joined. DTPA = O=C(O)CN(CCN(CC(=O)O)CC(=O)O)CCN(CC(=O)O)CC(=O)*
readout type: tissue uptake at 3 h

>>> reported("CC(=O)N[C@@H](Cc1ccccc1)C(=O)N[C@@H](CCCCNC(=O)CN(CCN(CCN(CC(=O)O)CC(=O)O)CC(=O)O)CC(=O)O)C(=O)N[C@@H](Cc1ccc(O)cc1)C(=O)N[C@@H](CCCCNC(=O)CN(CCN(CCN(CC(=O)O)CC(=O)O)CC(=O)O)CC(=O)O)C(N)=O [IMP 156, Ac-Phe-Lys(DTPA)-Tyr-Lys(DTPA)-NH2] (Ac-FK(DTPA)YK(DTPA)-NH2)")
"0.4 %ID/g"

###

- method summary: Pretargeting: 125-I-hMN-14 × 734 bsAb, 24 h later 99m-Tc-IMP-192, biodistribution
- Type: in vivo, Nude mice
- reported conditions: female, nude (Taconic NCRNU), mouse, total radioactivity; Lungs, 3 h post peptide
Where a SMILES comes first, the peptide text is derived from it. Side-chain parts run from the residue outwards. The star is where a group is joined. DTPA = O=C(O)CN(CCN(CC(=O)O)CC(=O)O)CCN(CC(=O)O)CC(=O)*; X1 = NC(=S)NN=CC(=O)*
readout type: tissue uptake at 3 h (%ID/g)

>>> reported("CC(=O)N[C@@H](CCCCNC(=O)CN(CCN(CCN(CC(=O)O)CC(=O)O)CC(=O)O)CC(=O)O)C(=O)N[C@@H](Cc1ccc(O)cc1)C(=O)N[C@@H](CCCCNC(=O)CN(CCN(CCN(CC(=O)O)CC(=O)O)CC(=O)O)CC(=O)O)C(=O)N[C@@H](CCCCNC(=O)[C@H](CS)NC(=O)C=NNC(N)=S)C(N)=O [IMP 192] (Ac-K(DTPA)YK(DTPA)K([Cys-X1])-NH2)")
1
